- Procedure text: Plasma pharmacokinetics after repeated once daily oral dosing of 2.5% (m/v) oily suspension
- Assay type: in vivo, cat
- Run conditions: both sexes, plasma, po, 4.8 mg/kg, last (6th) dose, 4.8 mg molidustat sodium per kg once daily oral, geometric mean (CV)
Metric: AUC

>>> print(df.to_string())
                                   molecule         result
0  O=c1c(-n2ccnn2)c[nH]n1-c1cc(N2CCOCC2)ncn1  13300 ng·h/mL

* * *

- Procedure text: Plasma pharmacokinetic study after single oral administration to fasted and fed cats
- Assay type: in vivo, cat
- Run conditions: female, European Shorthaired, plasma, po, 3 mg/kg, oral to fasted cats, 3.0 mg molidustat sodium per kg, geometric mean
Metric: AUC (ng·h/mL)

                                   molecule  metric  result
0  O=c1c(-n2ccnn2)c[nH]n1-c1cc(N2CCOCC2)ncn1     AUC    8420

* * *

- Procedure text: Plasma pharmacokinetics after single intravenous bolus dose
- Format: in vivo, cat
- Run conditions: female, plasma, iv, 5 mg/kg; females
Metric: clearance (L/h/kg)

In [3]: df
Out[3]:
                                   molecule  result
0  O=c1c(-n2ccnn2)c[nH]n1-c1cc(N2CCOCC2)ncn1    0.33

* * *

- Procedure text: Plasma pharmacokinetics after repeated once daily oral dosing of 2.5% (m/v) oily suspension
- Format: in vivo, cat
- Run conditions: both sexes, plasma, po, 4.8 mg/kg, last (6th) dose, 4.8 mg molidustat sodium per kg once daily oral, geometric mean (CV)
Metric: half-life (min)

In [3]: df
Out[3]:
                                   molecule  result
0  O=c1c(-n2ccnn2)c[nH]n1-c1cc(N2CCOCC2)ncn1     390

* * *

- Procedure text: Plasma pharmacokinetic study after single oral administration to fasted and fed cats
- Type: in vivo, cat
- Run conditions: female, European Shorthaired, plasma, po, 3 mg/kg, oral to fasted cats, 3.0 mg molidustat sodium per kg, median
Metric: Tmax (min)

>>> df
                                   compound  result
0  O=c1c(-n2ccnn2)c[nH]n1-c1cc(N2CCOCC2)ncn1 [molidustat]    40.2

* * *

- Procedure text: Plasma pharmacokinetics after single intravenous bolus dose
- Format: in vivo, cat
- Run conditions: female, plasma, iv, 5 mg/kg; females; read-out: volume of distribution
Metric: Vd (L/kg)

                                   molecule  result
0  O=c1c(-n2ccnn2)c[nH]n1-c1cc(N2CCOCC2)ncn1    2.96

* * *

- Procedure text: Plasma pharmacokinetic study after single oral administration to fasted and fed cats
- Type: in vivo, cat
- Run conditions: female, European Shorthaired, plasma, po, 3 mg/kg, oral to fasted cats, 3.0 mg molidustat sodium per kg, geometric mean
Metric: AUC(0-t) (ng·h/mL)

In [3]: df
Out[3]:
                                   compound  result_units  result
0  O=c1c(-n2ccnn2)c[nH]n1-c1cc(N2CCOCC2)ncn1 [molidustat]       ng·h/mL    8410

* * *

- Procedure text: Plasma pharmacokinetics, oral bioavailability and dose proportionality after single oral dose
- Format: in vivo, cat
- Run conditions: both sexes, 2.5 mg/kg single oral dose, geometric mean (CV)
- Experimental: The test item was applied as single oral dose at the expected target dose rate of 5 mg molidustat sodium per kg bw, at 2.5 mg/kg and at 10 mg/kg to healthy adult cats. […] The dose rates administered were at means of 2.42 mg/kg, 4.79, and 9.54 mg molidustat sodium per kg for the 0.5×, 1×, 2× dose groups, respectively. […] Dose rate calculations were based on the body weights determined prior to each study period. […]
Metric: half-life (h)

>>> df
                                   molecule  result_units  result
0  O=c1c(-n2ccnn2)c[nH]n1-c1cc(N2CCOCC2)ncn1 [molidustat]             h       5

* * *

- Procedure text: Plasma pharmacokinetics after repeated once daily oral dosing of 2.5% (m/v) oily suspension
- Format: in vivo, cat
- Run conditions: both sexes, plasma, po, 4.8 mg/kg, first dose, 4.8 mg molidustat sodium per kg once daily oral, geometric mean (CV)
Metric: AUC (ng·h/mL)

>>> print(df.to_string())
                                   molecule  metric  result
0  O=c1c(-n2ccnn2)c[nH]n1-c1cc(N2CCOCC2)ncn1     AUC   13300

* * *

- Procedure text: Plasma pharmacokinetics, oral bioavailability and dose proportionality after single oral dose
- Type: in vivo, cat
- Run conditions: both sexes, 2.5 mg/kg single oral dose, geometric mean (CV)
Metric: Cmax (ng/mL)

In [3]: df
Out[3]:
                                   molecule  result
0  O=c1c(-n2ccnn2)c[nH]n1-c1cc(N2CCOCC2)ncn1    2700

* * *

- Procedure text: Plasma pharmacokinetics, oral bioavailability and dose proportionality after single oral dose
- Format: in vivo, cat
- Run conditions: both sexes, 5.0 mg/kg single oral dose, geometric mean (CV)
Metric: AUC (ng·h/mL)

                                   molecule  result_units  result
0  O=c1c(-n2ccnn2)c[nH]n1-c1cc(N2CCOCC2)ncn1       ng·h/mL   12700

* * *

- Procedure text: Plasma pharmacokinetics after single intravenous bolus dose
- Assay type: in vivo, cat
- Run conditions: male, plasma, iv, 5 mg/kg; males; read-out: volume of distribution
Metric: Vd (L/kg)

In [3]: df
Out[3]:
                                   molecule  result
0  O=c1c(-n2ccnn2)c[nH]n1-c1cc(N2CCOCC2)ncn1    2.36

* * *

- Procedure text: Plasma pharmacokinetics after repeated once daily oral dosing of 2.5% (m/v) oily suspension
- Type: in vivo, cat
- Run conditions: both sexes, plasma, po, 4.8 mg/kg, first dose, 4.8 mg molidustat sodium per kg once daily oral, geometric mean (CV)
Metric: half-life (h)

>>> print(df.to_string())
                                   molecule     metric  result
0  O=c1c(-n2ccnn2)c[nH]n1-c1cc(N2CCOCC2)ncn1  half-life     4.2

* * *

- Procedure text: Plasma pharmacokinetic study after single oral administration to fasted and fed cats
- Format: in vivo, cat
- Run conditions: female, European Shorthaired, plasma, po, 3 mg/kg, oral to fed cats, 3.0 mg molidustat sodium per kg, geometric mean
Metric: Cmax

In [3]: df
Out[3]:
                                   molecule  metric     result
0  O=c1c(-n2ccnn2)c[nH]n1-c1cc(N2CCOCC2)ncn1    Cmax  930 ng/mL

* * *

- Procedure text: Plasma pharmacokinetics, oral bioavailability and dose proportionality after single oral dose
- Assay type: in vivo, cat
- Run conditions: both sexes, 10 mg/kg single oral dose, geometric mean (CV)
Metric: Cmax (ng/mL)

                                   molecule  result
0  O=c1c(-n2ccnn2)c[nH]n1-c1cc(N2CCOCC2)ncn1    6730

* * *

- Procedure text: Plasma pharmacokinetics after repeated once daily oral dosing of 2.5% (m/v) oily suspension
- Type: in vivo, cat
- Run conditions: both sexes, plasma, po, 4.8 mg/kg, last (6th) dose, 4.8 mg molidustat sodium per kg once daily oral, geometric mean (CV)
Metric: Cmax (ng/mL)

>>> print(df.to_string())
                                   compound  result_units  result
0  O=c1c(-n2ccnn2)c[nH]n1-c1cc(N2CCOCC2)ncn1 [molidustat]         ng/mL    4100
